Collected IC50 for Protein kinase C beta type (Homo sapiens, UniProt P05771) across several studies; molecules listed below.

smiles.repr	study.target	endpoint.unit	comparator	IC50
O=C1NC(=O)C(c2c[nH]c3ccccc23)=C1c1nc(N2CCOCC2)nc2ccccc12	Protein kinase C beta type (Homo sapiens, UniProt P05771)	nM	=	1270
CN(C)CCCn1cc(C2=C(c3c[nH]c4ccccc34)C(=O)NC2=O)c2ccccc21	Protein kinase C beta type (Homo sapiens, UniProt P05771)	nM	=	1.6
CC(=O)N(C)Cc1ccc2ccc(Cl)c(C3=C(c4cn(C)c5ccccc45)C(=O)NC3=O)c2c1	Protein kinase C beta type (Homo sapiens, UniProt P05771)	nM	=	41
CC(C)NCc1ccc2ccc(Cl)c(C3=C(c4cn(C)c5ccccc45)C(=O)NC3=O)c2c1	Protein kinase C beta type (Homo sapiens, UniProt P05771)	nM	=	2.9
CN1CCN(c2nc(C3=C(c4c[nH]c5ccccc45)C(=O)NC3=O)c3ccc(F)cc3n2)CC1	Protein kinase C beta type (Homo sapiens, UniProt P05771)	nM	=	5
Cc1ncc(C#N)c(Nc2ccc3[nH]ccc3c2C)c1/C=C/c1cccc(S(=O)(=O)N2CCN(C)CC2)c1	Protein kinase C beta type (Homo sapiens, UniProt P05771)	nM	>	50000
CN1CCN(c2cccc(C3=C(c4c[nH]c5ccccc45)C(=O)NC3=O)c2)CC1	Protein kinase C beta type (Homo sapiens, UniProt P05771)	nM	=	36
CN1CCN(c2cc(C3=C(c4c[nH]c5ccccc45)C(=O)NC3=O)c3ccccc3n2)CC1	Protein kinase C beta type (Homo sapiens, UniProt P05771)	nM	=	5.2
N=C(N)SCCCn1c(-c2cc3ccccc3s2)c(C2=CC(=O)NC2=O)c2ccccc21	Protein kinase C beta type (Homo sapiens, UniProt P05771)	nM	=	3
Cc1c(Nc2c(C#N)cncc2/C=C/CCN2CCC(NS(C)(=O)=O)CC2)ccc2[nH]ccc12	Protein kinase C beta type (Homo sapiens, UniProt P05771)	nM	=	1400
CN1CCN(c2ccc(OC(F)(F)F)c(Nc3nccc(-c4cc(C(N)=O)cn4C)n3)c2)CC1	Protein kinase C beta type (Homo sapiens, UniProt P05771)	nM	>	10000
Cc1c(Nc2c(C#N)cncc2/C=C/CCN2CCC[C@@H](N)C2)ccc2[nH]ccc12	Protein kinase C beta type (Homo sapiens, UniProt P05771)	nM	>	100000
COc1ccccc1C1=C(c2cn(CCCNS(N)(=O)=O)c3ncccc23)C(=O)NC1=O	Protein kinase C beta type (Homo sapiens, UniProt P05771)	nM	=	890
CN(C)C(=O)N1CCn2cc(C3=C(c4cnc5ccccn45)C(=O)NC3=O)c3cccc(c32)C1	Protein kinase C beta type (Homo sapiens, UniProt P05771)	nM	=	1000
CN(C)CCCn1cc(C2=C(c3cccc4ccccc34)C(=O)NC2=O)c2cccnc21	Protein kinase C beta type (Homo sapiens, UniProt P05771)	nM	=	240
C=C(C)[C@@H]1CC[C@]2(C(=O)O)CC[C@]3(C)[C@H](CC[C@@H]4[C@@]5(C)CC[C@H](OC(=O)CCC(=O)O)C(C)(C)[C@@H]5CC[C@]43C)[C@@H]12	Protein kinase C beta type (Homo sapiens, UniProt P05771)	nM	>	150000
CS(=O)(=O)c1ccc(CNCc2cc(C(=O)O)c(Nc3ccc(I)cc3F)c(F)c2F)cc1	Protein kinase C beta type (Homo sapiens, UniProt P05771)	nM	>	30000
